- target: T1, EsCas13d, nuclease-dead (Eubacterium siraeum, UniProt B0MS50, R295A;H300A;R849A;H854A)
- T1 sequence: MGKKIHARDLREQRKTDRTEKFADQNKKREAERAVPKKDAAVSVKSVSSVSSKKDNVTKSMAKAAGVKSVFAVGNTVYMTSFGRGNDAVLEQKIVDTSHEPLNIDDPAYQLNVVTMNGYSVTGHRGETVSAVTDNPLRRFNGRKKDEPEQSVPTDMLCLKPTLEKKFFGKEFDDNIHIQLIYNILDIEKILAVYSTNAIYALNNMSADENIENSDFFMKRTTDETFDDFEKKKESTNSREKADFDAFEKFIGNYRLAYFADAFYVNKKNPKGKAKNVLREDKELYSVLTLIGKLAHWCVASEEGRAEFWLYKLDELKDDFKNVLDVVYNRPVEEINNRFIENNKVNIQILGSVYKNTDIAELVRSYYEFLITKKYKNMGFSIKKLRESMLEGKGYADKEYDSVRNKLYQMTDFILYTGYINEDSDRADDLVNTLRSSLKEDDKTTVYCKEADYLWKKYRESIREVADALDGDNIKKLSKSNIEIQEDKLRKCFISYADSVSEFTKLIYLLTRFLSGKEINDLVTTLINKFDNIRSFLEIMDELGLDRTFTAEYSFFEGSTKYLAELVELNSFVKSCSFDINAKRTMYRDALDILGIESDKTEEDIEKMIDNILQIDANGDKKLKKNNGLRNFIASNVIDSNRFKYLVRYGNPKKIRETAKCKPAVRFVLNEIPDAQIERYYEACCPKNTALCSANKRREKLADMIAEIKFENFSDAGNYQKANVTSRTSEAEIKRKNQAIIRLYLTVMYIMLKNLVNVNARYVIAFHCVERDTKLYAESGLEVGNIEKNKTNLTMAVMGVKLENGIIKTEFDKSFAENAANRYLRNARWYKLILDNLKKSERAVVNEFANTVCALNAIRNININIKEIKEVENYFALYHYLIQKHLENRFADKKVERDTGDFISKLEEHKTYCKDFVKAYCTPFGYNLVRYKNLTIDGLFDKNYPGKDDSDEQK
- test: crRNA (strand 1, pre-loaded); Mg2+; 40 mM Tris-HCl pH 7.5, 150 mM NaCl, 6 mM MgCl2, 1 mM DTT, 0.1% Tween-20, 0.2 mg/ml BSA; 25 C; 10 min per concentration, then washed
- measurement-parameters: tags: His6-TwinStrep-SUMO cleaved; N-terminal SNAP kept (SNAP-Surface 488); label: 3' end held by stalled T7 RNA polymerase
measure: Kd (nM)
// return numeric value only (unit: nM, not printed)

- target 3 insA 3' of 15,insU 3' of 1 (mixed) RNA 1: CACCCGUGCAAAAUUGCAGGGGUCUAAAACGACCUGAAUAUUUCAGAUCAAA RNA 2: GGGAAUGGAUCCACAUCUACGAAUUCGUUUUUGAUCUAGAAAUAUUCAGGUCUUGCAGAUCGGAAGAGCACACGU: 51

Kd lookup needed for target 1 C7U,A18C (mixed) RNA 1: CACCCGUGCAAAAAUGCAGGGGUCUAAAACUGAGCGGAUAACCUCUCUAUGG RNA 2: GGGAAUGGAUCCACAUCUACGAAUUCGUACCAUCGAGAGGUUAUUCGCUCACCGAGAUCGGAAGAGCACACGU , thanks.
55

Kd lookup needed for target 2 MT 5'PFS UUC 3'PFS UAC (mixed) RNA 1: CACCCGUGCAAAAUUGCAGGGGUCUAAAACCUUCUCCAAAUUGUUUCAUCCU RNA 2: GGGAAUGGAUCCACAUCUACGAAUUCUUCAGGAUGAAACAAUUUGGAGAAGUACAGAUCGGAAGAGCACACGU , thanks.
17

Kd lookup needed for target 3 insG 3' of 9,insC 3' of 3 (mixed) RNA 1: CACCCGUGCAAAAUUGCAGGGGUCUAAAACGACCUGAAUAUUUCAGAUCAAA RNA 2: GGGAAUGGAUCCACAUCUACGAAUUCGUUUUUGAUCUGAAAUAGUUCAGGCUCUGCAGAUCGGAAGAGCACACGU , thanks.
42

Kd lookup needed for target 3 G4C,U22A (mixed) RNA 1: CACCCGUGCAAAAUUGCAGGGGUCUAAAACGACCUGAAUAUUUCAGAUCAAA RNA 2: GGGAAUGGAUCCACAUCUACGAAUUCGUUAUUGAUCUGAAAUAUUCACGUCUGCAGAUCGGAAGAGCACACGU , thanks.
10.7

Kd lookup needed for target 3 insC 3' of 5,insU 3' of 3 (mixed) RNA 1: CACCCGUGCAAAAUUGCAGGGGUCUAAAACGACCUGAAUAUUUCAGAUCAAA RNA 2: GGGAAUGGAUCCACAUCUACGAAUUCGUUUUUGAUCUGAAAUAUUCACGGUUCUGCAGAUCGGAAGAGCACACGU , thanks.
7.75

Kd lookup needed for target 2 MT 5'PFS AAC 3'PFS AGA (mixed) RNA 1: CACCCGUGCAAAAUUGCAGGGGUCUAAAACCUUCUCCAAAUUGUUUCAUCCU RNA 2: GGGAAUGGAUCCACAUCUACGAAUUCAACAGGAUGAAACAAUUUGGAGAAGAGAAGAUCGGAAGAGCACACGU , thanks.
3.3

Kd lookup needed for target 2 MT 5'PFS AGU 3'PFS CAC (mixed) RNA 1: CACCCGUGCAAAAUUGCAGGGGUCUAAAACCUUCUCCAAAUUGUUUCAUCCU RNA 2: GGGAAUGGAUCCACAUCUACGAAUUCAGUAGGAUGAAACAAUUUGGAGAAGCACAGAUCGGAAGAGCACACGU , thanks.
15

Kd lookup needed for target 2 MT 5'PFS GCG 3'PFS CAG (mixed) RNA 1: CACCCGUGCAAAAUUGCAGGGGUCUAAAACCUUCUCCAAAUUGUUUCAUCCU RNA 2: GGGAAUGGAUCCACAUCUACGAAUUCGCGAGGAUGAAACAAUUUGGAGAAGCAGAGAUCGGAAGAGCACACGU , thanks.
9.4

Kd lookup needed for target 2 MT 5'PFS GGA 3'PFS CCA (mixed) RNA 1: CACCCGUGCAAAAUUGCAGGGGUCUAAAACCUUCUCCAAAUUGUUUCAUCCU RNA 2: GGGAAUGGAUCCACAUCUACGAAUUCGGAAGGAUGAAACAAUUUGGAGAAGCCAAGAUCGGAAGAGCACACGU , thanks.
27

Kd lookup needed for target 2 MT 5'PFS UGA 3'PFS UUA (mixed) RNA 1: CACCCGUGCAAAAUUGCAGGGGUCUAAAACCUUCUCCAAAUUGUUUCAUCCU RNA 2: GGGAAUGGAUCCACAUCUACGAAUUCUGAAGGAUGAAACAAUUUGGAGAAGUUAAGAUCGGAAGAGCACACGU , thanks.
10.7

// provenance: paper PMC10786891
